target: recombinant active human PAI-1 (Homo sapiens (Human)); assay: Fluorometric PAI-1/uPA IC50 plate assay at pH 7.8; assay type: biochemical; settings: physiologic buffer
Mark each entry TRUE if its IC50 sits below 1000 nM, and FALSE for all others.

compound	answer-label
CCCCCCCCN(S(=O)(=O)c1ccc(O)cc1)S(=O)(=O)c1cccc(O)c1 [C294]	FALSE
CCCCCCCCN(S(=O)(=O)c1ccc(CCCCC)cc1)S(=O)(=O)c1ccc(O)c(O)c1 [C191]	FALSE
CCCCCCCCCCCCN(S(=O)(=O)c1ccc(O)c(O)c1)S(=O)(=O)c1ccc(O)c(O)c1 [C158]	FALSE
CCCCCCCCN(Cc1cccc(C(F)(F)F)c1)S(=O)(=O)c1ccc(O)c(O)c1 [C179]	FALSE
O=C(O)[C@H](NS(=O)(=O)c1ccc(O)c(O)c1)c1ccccc1 [C274]	FALSE
CCCCCCCCN(CCN(CCCCCCCC)S(=O)(=O)c1ccc(O)c(O)c1)S(=O)(=O)c1ccc(O)c(O)c1 [C176]	TRUE
CCCCCCCCCN(S(=O)(=O)c1ccc(O)c(O)c1)S(=O)(=O)c1ccc(O)c(O)c1 [C183]	TRUE
O=C(OCC(CNS(=O)(=O)c1cccc(C(F)(F)F)c1)OC(=O)c1ccc(O)c(O)c1)c1ccc(O)c(O)c1 (centres unmarked) [C204]	TRUE

* * *

Each entry below carries its reported IC50.
biological target: recombinant active human PAI-1 (Homo sapiens (Human), UniProt P05121); assay: Fluorometric PAI-1/uPA IC50 plate assay at pH 7.8; type: biochemical; conditions: physiologic buffer
Sequence (P05121 24-402): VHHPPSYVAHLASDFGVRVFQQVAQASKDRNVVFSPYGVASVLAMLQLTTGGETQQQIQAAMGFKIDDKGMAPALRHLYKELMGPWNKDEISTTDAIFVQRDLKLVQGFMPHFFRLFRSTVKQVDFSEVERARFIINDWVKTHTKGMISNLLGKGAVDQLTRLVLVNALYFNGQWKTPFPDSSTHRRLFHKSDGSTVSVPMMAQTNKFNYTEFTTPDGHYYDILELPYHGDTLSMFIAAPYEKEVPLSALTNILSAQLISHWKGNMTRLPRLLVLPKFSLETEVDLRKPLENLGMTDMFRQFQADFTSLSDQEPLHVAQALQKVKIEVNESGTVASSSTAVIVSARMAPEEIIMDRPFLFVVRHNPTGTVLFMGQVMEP

compound	unit-descriptor	IC50
CCCCCCCCN(S(=O)(=O)c1cccc(O)c1)S(=O)(=O)c1ccc(O)c(O)c1 [C292]	µM	4.94
O=C(OCCOC(=O)c1ccc(O)c(O)c1)c1cc(O)cc(O)c1 [C236]	µM	174
CCCCCCCCN(S(=O)(=O)c1ccc(O)c(O)c1)S(=O)(=O)c1cc(F)c(O)c(F)c1 [C152]	µM	1.57
CCCCCCCCN(CCCCCCCC)S(=O)(=O)c1ccc(O)c(O)c1 [C170]	µM	5.49
O=C(O)[C@H](Cc1ccccc1)NS(=O)(=O)c1ccc(O)c(O)c1 [C272]	µM	16.4
CCCCCCCCN(CC(O)c1ccccc1)S(=O)(=O)c1ccc(O)c(O)c1 (stereo not drawn) [C175]	µM	6.74

* * *

molecular target: recombinant active human PAI-1 (Homo sapiens (Human)); assay: Fluorometric PAI-1/uPA IC50 plate assay at pH 7.4; type: biochemical; conditions: physiologic buffer with 1.5% BSA (15 mg/mL), read-out: PAI-1/uPA IC50 in 1.5% BSA buffer
pIC50: −log10 of the molar value.
Each entry below carries its reported pIC50.
measurement-name: pIC50

molecule	measurement-name	recorded-result
NNC(=O)CCC(=O)NCc1ccc(F)c(C(F)(F)F)c1 [C287]	pIC50	3.44
O=C(NCc1ccc(Br)cc1)c1ccc(O)c(O)c1 [C360]	pIC50	2.78
O=C(NCc1ccc(Cl)cc1)c1ccc(O)c(O)c1 [C361]	pIC50	2.70
CON(C)C(=O)C(=O)NCc1ccc(Cl)c(C(F)(F)F)c1 [C328]	pIC50	3.46
NNC(=O)CCC(=O)NCc1cccc(C(F)(F)F)c1 [C289]	pIC50	2.96
NNC(=O)C(=O)NCc1ccc(Cl)cc1F [C307]	pIC50	4.00

* * *

This section lists IC50 readings for anti-thrombin III (ATIII) (Homo sapiens (Human)).

smiles-representation	tested-target	IC50 (µM)
CCCCCCCCCCCCN(S(=O)(=O)c1ccc(O)c(O)c1)S(=O)(=O)c1ccc(O)c(O)c1	anti-thrombin III (ATIII) (Homo sapiens (Human))	547
CCCCCCCCN(S(=O)(=O)c1cc(F)c(O)c(F)c1)S(=O)(=O)c1cc(F)c(O)c(F)c1	anti-thrombin III (ATIII) (Homo sapiens (Human))	2330
O=S(=O)(NCc1ccccc1)c1ccc(O)c(O)c1	anti-thrombin III (ATIII) (Homo sapiens (Human))	2330
CCCCCCCCNC(=O)c1cc(O)c(O)c(O)c1	anti-thrombin III (ATIII) (Homo sapiens (Human))	1670
CCCCCCCCCCN(S(=O)(=O)c1ccc(O)c(O)c1)S(=O)(=O)c1ccc(O)c(O)c1	anti-thrombin III (ATIII) (Homo sapiens (Human))	44.4

* * *

molecular target: recombinant active human PAI-1 (Homo sapiens (Human), UniProt P05121); assay: Fluorometric PAI-1/uPA IC50 plate assay at pH 7.8; format: biochemical; conditions: physiologic buffer
Each entry below carries its reported IC50.

compound	IC50 [µM]
CC(C)(C)n1nc(-c2ccccc2)nc1-c1ccc(O)c(O)c1	181
O=S(=O)(c1ccc(O)c(O)c1)N(c1cccc(C(F)(F)F)c1)S(=O)(=O)c1ccc(O)c(O)c1	0.288
CCCCCCCCCCN(CCN(C)S(=O)(=O)c1ccc(O)c(O)c1)S(=O)(=O)c1ccc(O)c(O)c1	0.45
CCCCCCCCCN(CCN(CCCCCCCCC)S(=O)(=O)c1ccc(O)c(O)c1)S(=O)(=O)c1ccc(O)c(O)c1	0.42
CCCCCCCCNC(=O)c1cc(O)c(O)c(O)c1	3.7
CCCCCCCCN(Cc1cc(Cl)c(O)c(Cl)c1)S(=O)(=O)c1ccc(O)c(O)c1	1.98
O=S(=O)(c1ccccc1)N(CCc1ccc(O)c(O)c1)S(=O)(=O)c1ccc(O)c(O)c1	0.173
O=S(=O)(c1ccc(O)c(O)c1)N(c1ccc(-c2ccccc2)cc1)S(=O)(=O)c1ccc(O)c(O)c1	0.35
O=S(=O)(c1ccc(O)c(O)c1)N1CCc2ccccc21	5.05
CCCCCCCN(CCN(CCCCCCC)S(=O)(=O)c1ccc(O)c(O)c1)S(=O)(=O)c1ccc(O)c(O)c1	0.59
CCCCN(C)C(=O)CSc1ccc(O)c(O)c1	58.4
O=C(CCc1ccc(O)c(O)c1)NCc1ccc(Cl)c(C(F)(F)F)c1	423
CCCCCCc1ccc(NS(=O)(=O)c2ccc(O)c(O)c2)cc1	0.91
O=S(=O)(NCCCc1ccccc1)c1ccc(O)c(O)c1	13.3
O=C(O)[C@@H](Cc1ccccc1)NS(=O)(=O)c1ccc(O)c(O)c1	30.5
O=C1S/C(=C\c2ccc(O)c(O)c2)C(=O)N1Cc1ccccc1	5.36
CCCCCCCCN(S(=O)(=O)c1ccc(-c2ccc(OC(F)(F)F)cc2)cc1)S(=O)(=O)c1ccc(O)c(O)c1	19.2
CCCCCCCCN(S(=O)(=O)c1cc(F)c(O)c(F)c1)S(=O)(=O)c1cc(F)c(O)c(F)c1	30.4
O=S(=O)(NCc1ccccc1)c1ccc(O)c(O)c1	39
O=S(=O)(c1ccc(O)c(O)c1)N1CCC[C@H]1CCc1ccccc1	6.98
CCCCCCCN(S(=O)(=O)c1ccc(O)c(O)c1)S(=O)(=O)c1ccc(O)c(O)c1	0.033
CCCCCCCCCCN(CCN(CCCCCCCCCC)S(=O)(=O)c1ccc(O)c(O)c1)S(=O)(=O)c1ccc(O)c(O)c1	1.98
O=C(O)CCCCNS(=O)(=O)c1ccc(O)c(O)c1	663
CCCCCCCCCCN(S(=O)(=O)c1ccc(O)c(O)c1)S(=O)(=O)c1ccc(O)c(O)c1	0.25
O=C(O)CCCCCNS(=O)(=O)c1ccc(O)c(O)c1	1.82
CCCCCCN(CCCCCC)S(=O)(=O)c1ccc(O)c(O)c1	1.67
CC(C)(C)n1nc(C2CC2)nc1Cc1ccc(O)c(O)c1	1610
CCCCCc1nc(Cc2ccc(O)c(O)c2)n(C(C)(C)C)n1 [C220]	116
CCCCCCCCN(Cc1cccc(Cl)c1)S(=O)(=O)c1ccc(O)c(O)c1	5.11
O=S(=O)(NCCc1ccc(O)c(O)c1)c1ccccc1	190
O=S(=O)(NCc1ccc(Cl)c(C(F)(F)F)c1)c1ccc(O)c(O)c1	13.6
O=S(=O)(NCCc1ccc(O)c(O)c1)c1ccc(O)c(O)c1	0.051
CCCCCc1nc(Cc2ccc(O)c(O)c2)n(C(C)(C)C)n1 [C223]	125
CCCCCCc1ccc(N(S(=O)(=O)c2ccc(CCC)cc2)S(=O)(=O)c2ccc(O)c(O)c2)cc1	2.29
O=C(O)[C@@H](NS(=O)(=O)c1ccc(O)c(O)c1)c1ccccc1	55.6
CC(C)(C)OC(=O)NCCCOC(=O)c1cc(O)c(O)c(O)c1	189
CC(C)(C)n1nc(-c2ccccc2)nc1Cc1ccc(O)c(O)c1	77.2
CCCCCCCCCCCCc1ccc(N(S(=O)(=O)c2ccc(O)c(O)c2)S(=O)(=O)c2ccc(O)c(O)c2)cc1	0.92
